assay: growth inhibition of PfHsp90-dependent yeast, primary screen, antimalarial PfHsp90 inhibitor project, S. cerevisiae, BacTiter-Glo luminescence (AID 504594);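 further: 0% = DMSO neutral control wells and 100% = 20 µM radicicol control wells; higher value means stronger growth inhibition because the sign is flipped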; conditions: S. cerevisiae expressing PfHsp90, BacTiter-Glo growth, 48 h; at 9.4 µM; active compounds read high
In all, about 2,000 compounds went through this assay and fewer than 10 were called active. Not all results are given here.
endpoint: growth inhibition

>  <compound>
Cc1csc(CCc2nc(C)cs2)n1

>  <growth inhibition>
0.825% (inactive)

$$$$

For each listed entry, give its growth inhibition.
1. N/C(Cc1ccc(Cl)cc1Cl)=N\OC(=O)c1ccc(Br)o1
2. CC1(C)CC(=O)c2cnc(NC(=O)C3CCCC3)nc2C1
3. Cn1nc(-c2ccccn2)nc2c(=O)n(C)c(=O)nc1-2
4. C=CCNC(=O)c1ccc(-c2cccc([N+](=O)[O-])c2)o1
5. Cc1ccc2c(c1)c(C)cc(=O)n2CCC(=O)O

## Result
30.5% (inactive)
0.802% (inactive)
-12.4% (inactive)
0.359% (inactive)
-4.29% (inactive)

For each listed entry, give its growth inhibition.
1. Cc1cccc(Oc2coc3cc(OC(=O)c4cncc(Br)c4)ccc3c2=O)c1
2. COc1ccc(-c2[nH]ncc2C=O)cc1OC

## Result
1. -0.933% (inactive)
2. 7.91% (inactive)

For each listed entry, give its growth inhibition.
1. COc1ccc(-c2cc(=O)oc3cc(OC(C)C(=O)O)ccc23)cc1 (stereo unspecified)
2. COc1ccc2cc(C(=O)Nc3ccc(S(N)(=O)=O)cc3)sc(=O)c2c1OC
3. CCOCCn1c(C(C)O)nc2ccccc21 (stereo unspecified)
4. COc1ccc(OC)c(-c2oc3ccccc3c(=O)c2O)c1
5. O=C(O)CCCCCN=C1CCc2ccccc2N1

## Result
1: -0.213% (inactive); 2: 5.36% (inactive); 3: -8.58% (inactive); 4: -8.17% (inactive); 5: 0.535% (inactive)

For each listed entry, give its growth inhibition.
1. Cn1nc(-c2ccc(Cl)cc2)nc2c(=O)n(C)c(=O)nc1-2
2. Cc1ccc2ncnc(NCCCCCC(=O)O)c2c1
3. Cc1ccc(C(=O)Nc2ccc(O)cc2C(=O)O)cc1C
4. COC(=O)c1ccccc1NC(=O)NCc1ccccc1
5. CC(=O)OCC(OC(C)=O)C(OC(C)=O)C(OC(C)=O)C(=O)Nc1cccc(C)c1 (stereo unspecified)
6. CCN(CC)CCN1C(=O)C(=O)/C(=C(/O)c2c(C)[nH]c(C(=O)OC)c2C)C1c1cccnc1 (stereo unspecified)
7. O=C1NCC2=C1C(c1ccccc1)Nc1ccccc1N2 (stereo unspecified)

## Result
1: 104% (active); 2: 4.2% (inactive); 3: 4.07% (inactive); 4: -7.31% (inactive); 5: -0.0548% (inactive); 6: -4.71% (inactive); 7: 6.48% (inactive)

## Task Could you share which growth inhibition value was measured for CC(C)(C)NCC(O)COc1ccccc1C(=O)CCc1ccccc1 (stereo unspecified) ?
## Result -4.71% (inactive)
